Measured MIC, listed per entry.
- System: Microsporum canis
- assay.method.text: In vitro antifungal activity against Microsporum canis
- Type: functional
The answer is to be given in µg/mL; state only the numeric part.

CC(C)CC1(C)CC(=O)c2ccc(O)cc2O1 (stereo unspecified)	40
CC(C)=CCCC1(C)CC(=O)c2ccc(O)cc2O1 (stereo unspecified)	40
CCCCCC1(C)CC(O)c2ccc(OC)cc2O1 (stereo unspecified)	20
COc1ccc2c(c1)OC(C)(CCC=C(C)C)C=C2 (stereo unspecified)	80
CCCCCCCC1(C)CC(=O)c2ccc(OC)cc2O1 (stereo unspecified)	40
CCCCCCCC1(C)CC(O)c2ccc(OC)cc2O1 (stereo unspecified)	80
CCCCCCCC1(C)C/C(=N/O)c2ccc(O)cc2O1 (stereo unspecified)	0.625
COc1ccc2c(c1)OC(C)(CCC=C(C)C)CC2O (stereo unspecified)	160
COc1ccc2c(c1)OC(C)(CCC=C(C)C)CC2=O (stereo unspecified)	80
CCCCCC1(C)C=Cc2ccc(OC)cc2O1 (stereo unspecified)	320

Case CC(C)=CCCC1(C)C/C(=N/O)c2ccc(O)cc2O1 (stereo unspecified) , Microsporum canis, MIC recorded as 2.5

Lab note: compound CCCCCCCC1(C)C=Cc2ccc(OC)cc2O1 (stereo unspecified) tested on Microsporum canis; recorded MIC was 320

Known value: Microsporum canis MIC of the compound CCCCCC1(C)C/C(=N/O)c2ccc(O)cc2O1 (stereo unspecified) equals 5

Field MIC (Microsporum canis), entry CC(C)=CCCC1(C)CC(O)c2ccc(O)cc2O1 (stereo unspecified) : 10

MIC value, target or system Microsporum canis, for CCCCCC1(C)CC(=O)c2ccc(OC)cc2O1 (stereo unspecified) : 80

Result for CCCCCCCC1(C)CC(O)c2ccc(O)cc2O1 (stereo unspecified) , tested on Microsporum canis, MIC: 2.5

For OC(Cn1cncn1)(Cn1cncn1)c1ccc(F)cc1F [FLUCONAZOLE] on Microsporum canis, measured MIC was 0.5

Microsporum canis assay, compound CCCCCCCCCC1(C)CC(=O)c2ccc(O)cc2O1 (stereo unspecified) , recorded MIC = 80

Considering CCCCCC1(C)CC(O)c2ccc(O)cc2O1 (stereo unspecified) , its MIC with Microsporum canis was recorded as 10

Reading of MIC for CCCCCCCC1(C)CC(=O)c2ccc(O)cc2O1 (stereo unspecified) with Microsporum canis: 80

Measured MIC for this entry CCCCCC1(C)CC(=O)c2ccc(O)cc2O1 (stereo unspecified) on Microsporum canis: 40

This collection of values is drawn from ChEMBL document CHEMBL1145962.
